Reference for the values: ChEMBL document CHEMBL4390674

molecular target: 5-hydroxytryptamine receptor 1D (Homo sapiens); test: Displacement of [3H]5-CT from recombinant human 5HT1D receptor transiently expressed in HEKT cells measured after 90 mins by microbeta scintillation counting method
Sequence (P28221 whole entry): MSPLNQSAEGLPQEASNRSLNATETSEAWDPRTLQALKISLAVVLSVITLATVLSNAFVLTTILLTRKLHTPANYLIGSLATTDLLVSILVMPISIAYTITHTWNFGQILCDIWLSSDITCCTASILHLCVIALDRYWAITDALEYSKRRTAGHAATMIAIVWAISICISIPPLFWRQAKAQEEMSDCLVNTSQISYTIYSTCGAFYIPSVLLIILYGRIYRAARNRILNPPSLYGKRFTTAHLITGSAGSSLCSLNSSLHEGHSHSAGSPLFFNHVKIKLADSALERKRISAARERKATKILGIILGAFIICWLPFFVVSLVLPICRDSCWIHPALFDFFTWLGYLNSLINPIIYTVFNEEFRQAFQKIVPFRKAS
Assay Readout: pKi
Units for pKi: none; it is -log10 of a concentration expressed in mol/L.

Known results for molecules:
Smiles String: FC(F)(F)c1cc(Oc2nccc3ccsc23)ccc1-c1cccc2nccn12
Tgt: 5-hydroxytryptamine receptor 1D (Homo sapiens)
pKi: 5.39
--
Smiles String: Cc1ncc2nccn2c1-c1ccc(Oc2nccc3occc23)cc1C(F)(F)F
Tgt: 5-hydroxytryptamine receptor 1D (Homo sapiens)
pKi: 5.09

According to the records, this molecule "FC(F)(F)c1cc(Oc2nccc3occc23)ccc1-c1cccc2nccn12" displays pKi of 5.05

# pKi of "Cc1cc(Oc2nccc3occc23)ccc1-c1c(C)ncc2nccn12" = 5.03
